# TARGET_UNDER_TEST: Epithelial discoidin domain-containing receptor 1 (Homo sapiens, UniProt Q08345)
# Sequence (Q08345 whole entry, the tested form may be a part): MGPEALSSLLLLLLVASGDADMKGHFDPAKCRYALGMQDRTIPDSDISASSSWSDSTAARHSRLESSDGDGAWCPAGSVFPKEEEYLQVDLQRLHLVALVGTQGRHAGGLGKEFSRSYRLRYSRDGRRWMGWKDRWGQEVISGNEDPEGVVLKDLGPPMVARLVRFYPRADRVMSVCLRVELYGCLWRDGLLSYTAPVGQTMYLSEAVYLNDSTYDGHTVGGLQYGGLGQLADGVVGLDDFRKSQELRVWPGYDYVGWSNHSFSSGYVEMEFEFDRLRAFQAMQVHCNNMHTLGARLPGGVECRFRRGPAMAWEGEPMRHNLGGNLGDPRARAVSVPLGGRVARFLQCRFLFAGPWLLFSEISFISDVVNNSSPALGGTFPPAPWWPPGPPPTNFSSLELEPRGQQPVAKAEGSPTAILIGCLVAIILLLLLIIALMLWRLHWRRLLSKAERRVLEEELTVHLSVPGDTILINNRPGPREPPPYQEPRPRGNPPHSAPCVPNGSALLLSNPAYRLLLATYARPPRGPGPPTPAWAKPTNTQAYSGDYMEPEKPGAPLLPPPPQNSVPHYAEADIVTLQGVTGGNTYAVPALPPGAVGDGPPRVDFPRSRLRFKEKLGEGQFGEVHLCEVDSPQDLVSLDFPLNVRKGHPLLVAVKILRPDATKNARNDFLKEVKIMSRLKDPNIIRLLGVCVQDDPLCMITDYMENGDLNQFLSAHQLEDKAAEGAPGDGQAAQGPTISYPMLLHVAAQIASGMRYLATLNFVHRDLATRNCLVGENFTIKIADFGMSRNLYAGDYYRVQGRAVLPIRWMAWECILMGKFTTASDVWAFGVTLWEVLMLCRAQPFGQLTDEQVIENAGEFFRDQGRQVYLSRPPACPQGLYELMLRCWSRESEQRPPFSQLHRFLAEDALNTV
# PROCEDURE_SUMMARY: Inhibition of recombinant human GST-tagged DDR1 catalytic domain (440 to 876 residues) expressed in baculovirus expression system using Fluorescein-poly GAT as substrate incubated for 1 hr in presence of ATP by LanthaScreen Eu kinase assay
QUANTITY_MEASURED: IC50 (nM)

1) CCc1ccc(C(=O)Nc2cccc(C(F)(F)F)c2)cc1-c1cccc(-c2cnc3cnccn23)c1 10.4
2) CCc1ccc(C(=O)Nc2cccc(C(F)(F)F)c2)cc1-c1cc(-c2cnc3cnccn23)ccc1C 63.7
3) CCc1ccc(C(=O)Nc2ccc(C(F)(F)F)cc2)cc1-c1cccc(-c2cnc3cnccn23)c1 1300

I: CCc1cc(-c2cc(C(=O)Nc3cccc(C(F)(F)F)c3)ccc2CC)cc(-c2cnc3cnccn23)c1
II: CCc1ccc(C(=O)Nc2cccc(C(F)(F)F)c2)cc1-c1cc(-c2cnc3cnccn23)cc(C(C)(C)C)c1
Req: Between the entries labelled I and II , which has a larger IC50 value on record? Select an item and report its label.
Resp: II
(II: 92 nM, I: 42.3 nM)

* * *

# TARGET_UNDER_TEST: Mast/stem cell growth factor receptor Kit (Homo sapiens)
# Sequence (P10721 whole entry, the tested form may be a part): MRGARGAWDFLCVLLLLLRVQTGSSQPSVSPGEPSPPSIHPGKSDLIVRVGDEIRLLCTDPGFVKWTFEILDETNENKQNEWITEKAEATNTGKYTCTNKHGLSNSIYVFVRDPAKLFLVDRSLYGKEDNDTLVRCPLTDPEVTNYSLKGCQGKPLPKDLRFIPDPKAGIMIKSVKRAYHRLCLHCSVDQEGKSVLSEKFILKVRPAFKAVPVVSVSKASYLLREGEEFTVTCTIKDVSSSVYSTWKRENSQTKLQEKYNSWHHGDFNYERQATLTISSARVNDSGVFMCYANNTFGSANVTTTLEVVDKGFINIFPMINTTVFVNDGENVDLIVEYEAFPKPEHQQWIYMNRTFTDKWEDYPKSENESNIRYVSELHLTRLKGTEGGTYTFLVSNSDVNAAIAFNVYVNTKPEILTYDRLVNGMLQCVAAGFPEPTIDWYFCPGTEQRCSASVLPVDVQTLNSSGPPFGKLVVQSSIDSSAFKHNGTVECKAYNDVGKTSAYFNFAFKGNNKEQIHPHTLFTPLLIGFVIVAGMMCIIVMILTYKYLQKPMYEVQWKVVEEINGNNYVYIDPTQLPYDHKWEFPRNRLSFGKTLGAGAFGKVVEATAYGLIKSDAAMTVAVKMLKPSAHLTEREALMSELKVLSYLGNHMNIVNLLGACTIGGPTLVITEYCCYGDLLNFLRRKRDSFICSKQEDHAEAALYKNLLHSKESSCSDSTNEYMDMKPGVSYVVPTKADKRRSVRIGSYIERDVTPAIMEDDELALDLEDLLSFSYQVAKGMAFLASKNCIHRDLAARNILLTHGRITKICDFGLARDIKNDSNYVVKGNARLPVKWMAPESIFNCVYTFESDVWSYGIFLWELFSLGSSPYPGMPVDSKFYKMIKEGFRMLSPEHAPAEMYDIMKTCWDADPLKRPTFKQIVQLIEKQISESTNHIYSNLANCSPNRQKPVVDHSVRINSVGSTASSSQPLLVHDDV
# PROCEDURE_SUMMARY: Inhibition of human recombinant His-tagged c-Kit cytoplasmic domain (544 to 976 residues) expressed in baculovirus expression system using Ser/Thr 6 peptide as substrate after 1 hr in presence of 300 uM ATP by FRET based Z'-LYTE assay
pIC50: −log10 of the molar value.
QUANTITY_MEASURED: pIC50

1. CCc1ccc(C(=O)Nc2ccccc2C(F)(F)F)cc1-c1cccc(-c2cnc3cnccn23)c1 < 5.00
2. CCc1ccc(C(=O)Nc2cccc(C(F)(F)F)c2)cc1-c1cc(-c2cnc3cnccn23)cc(C(C)C)c1 < 5.00
3. CCc1ccc(C(=O)Nc2cccc(C(F)(F)F)c2)cc1-c1cc(C)cc(-c2cnc3cnccn23)c1 < 5.00
4. CCc1ccc(C(=O)Nc2cccc(C(F)(F)F)c2)cc1-c1cc(-c2cnc3cnccn23)cc(C(C)(C)C)c1 < 5.00
5. CCc1ccc(C(=O)Nc2cccc(C(F)(F)F)c2)cc1-c1cccc(-c2cnc3cnccn23)c1C 5.22

Would you kindly look at the next entry?
Req: I have this molecule here, CCc1ccc(C(=O)Nc2cccc(C(F)(F)F)c2)cc1-c1cc(Cl)cc(-c2cnc3cnccn23)c1 , and I need its recorded pIC50.
Resp: 5.07

* * *

# TARGET_UNDER_TEST: Discoidin domain-containing receptor 2 (Homo sapiens, UniProt Q16832)
# Sequence (Q16832 whole entry, the tested form may be a part): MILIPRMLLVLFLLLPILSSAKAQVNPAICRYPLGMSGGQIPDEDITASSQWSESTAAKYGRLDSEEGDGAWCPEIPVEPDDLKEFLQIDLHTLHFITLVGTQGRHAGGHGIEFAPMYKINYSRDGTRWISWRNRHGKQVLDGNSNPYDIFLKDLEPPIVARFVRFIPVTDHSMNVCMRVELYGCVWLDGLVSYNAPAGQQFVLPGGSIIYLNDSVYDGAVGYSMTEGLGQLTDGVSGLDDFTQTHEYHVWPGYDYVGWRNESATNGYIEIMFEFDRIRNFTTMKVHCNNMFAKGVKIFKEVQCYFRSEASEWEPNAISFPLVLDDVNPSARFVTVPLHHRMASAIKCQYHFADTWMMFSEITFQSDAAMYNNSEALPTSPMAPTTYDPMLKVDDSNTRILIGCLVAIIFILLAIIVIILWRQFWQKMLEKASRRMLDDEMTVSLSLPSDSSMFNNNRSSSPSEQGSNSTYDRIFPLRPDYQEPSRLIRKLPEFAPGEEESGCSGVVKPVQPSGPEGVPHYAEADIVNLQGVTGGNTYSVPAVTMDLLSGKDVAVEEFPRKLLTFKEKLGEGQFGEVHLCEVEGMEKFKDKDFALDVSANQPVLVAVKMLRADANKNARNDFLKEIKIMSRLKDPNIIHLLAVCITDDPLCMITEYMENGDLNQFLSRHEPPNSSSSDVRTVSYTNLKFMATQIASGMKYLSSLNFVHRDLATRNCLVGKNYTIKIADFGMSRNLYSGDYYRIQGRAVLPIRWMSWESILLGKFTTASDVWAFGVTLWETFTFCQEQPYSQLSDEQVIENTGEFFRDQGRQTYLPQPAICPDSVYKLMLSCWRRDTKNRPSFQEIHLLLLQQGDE
# PROCEDURE_SUMMARY: Inhibition of recombinant human GST-tagged DDR2 cytoplasmic domain (427 to 855 residues) expressed in baculovirus expression system using Fluorescein-poly GAT as substrate incubated for 1 hr in presence of ATP by LanthaScreen Eu kinase assay
pIC50: −log10 of the molar value.
QUANTITY_MEASURED: pIC50

Below: 4 molecules and their reported pIC50.
1) CCc1ccc(C(=O)Nc2cccc(C(F)(F)F)c2F)cc1-c1cc(C)cc(-c2cnc3cnccn23)c1 < 5.30
2) CCc1ccc(C(=O)Nc2cc(C(F)(F)F)ccc2F)cc1-c1cc(C)cc(-c2cnc3cnccn23)c1 < 5.30
3) CCc1ccc(C(=O)Nc2cccc(C(F)(F)F)c2)cc1-c1cc(-c2cnc3cnccn23)cc(C(C)(C)C)c1 < 5.00
4) CCc1ccc(C(=O)Nc2ccc(C(F)(F)F)cc2)cc1-c1cccc(-c2cnc3cnccn23)c1 < 5.00

Req: Form field: pIC50 recorded for CCc1ccc(C(=O)Nc2cccc(CN3CCN(C)CC3)c2)cc1-c1cccc(-c2cnc3cnccn23)c1 with Discoidin domain-containing receptor 2 (Homo sapiens, UniProt Q16832) (enter value)
Resp: < 5.00

* * *

# TARGET_UNDER_TEST: Epithelial discoidin domain-containing receptor 1 (Homo sapiens, UniProt Q08345)
# PROCEDURE_SUMMARY: Inhibition of recombinant human GST-tagged DDR1 catalytic domain (440 to 876 residues) expressed in baculovirus expression system using Fluorescein-poly GAT as substrate incubated for 1 hr in presence of ATP by LanthaScreen Eu kinase assay
QUANTITY_MEASURED: IC50 (nM)

A: CCc1ccc(C(=O)Nc2ccccc2)cc1-c1cccc(-c2cnc3cnccn23)c1
B: CCc1ccc(C(=O)Nc2ccc(F)c(C(F)(F)F)c2)cc1-c1cc(C)cc(-c2cnc3cnccn23)c1
C: CCc1ccc(C(=O)Nc2cccc(C(F)(F)F)c2)cc1-c1cc(C)cc(-c2cnc3cnccn23)c1
Req: Ordering: ascending IC50. // rank by listing labels in the order requested
Resp: C, B, A
(C: 22.5 nM, B: 55.6 nM, A: 4850 nM)
